# assay target: human TDRD7 L1 (Homo sapiens, UniProt Q8NHU6 3-76)
# Sequence (Q8NHU6 3-76): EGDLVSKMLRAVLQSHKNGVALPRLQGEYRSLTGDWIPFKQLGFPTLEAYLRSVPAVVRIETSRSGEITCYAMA
# assay explanation: ELISA
readout label: binding result

binder	readout label	observed measurement
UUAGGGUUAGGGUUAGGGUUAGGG (structured_RNA) [TERRA G4 RNA]	binding result	binds
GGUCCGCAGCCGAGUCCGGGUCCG (ssRNA) [Cluster G4-1 mut RNA]	binding result	no binding
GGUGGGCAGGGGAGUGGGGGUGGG (structured_RNA) [Cluster G4-1 RNA]	binding result	binds
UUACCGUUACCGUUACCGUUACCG (ssRNA) [TERRA G4 mut RNA]	binding result	no binding
